Just for reference, PubChem BioAssay (NCATS) is where these values come from.

measured.target: Aldehyde dehydrogenase, mitochondrial (Homo sapiens) (UniProt P05091)
measurement.description: qHTS for Inhibitors of the Aldehyde Dehydrogenase Family (ALDH2) Primary screen (AID 2061308); note: nearly all actives have a fitted effect of over 55% in size
measurement.parameters: ALDH2 enzyme inhibition qHTS, 1536-well; series mostly up to 56 µM
Results filed as inconclusive are left out. Calls of active or inactive are those of the source. Calls come from the whole dose curve; as a rule, active = well fitted inhibition curve with a large enough effect; inconclusive = small, poorly fitted or top-dose-only effect; inactive = flat fitted curve, though single readings scatter.
measured.metric: activity change, negative = inhibition

C=CCC/C=C/C#CCCCCCCCC[C@H]1C(=O)O[C@H](C)[C@@H]1O ... inactive
CC1CC(=O)C2=C(O1)OC1(C)CCC3C(C)(C)C=CC(=O)C3(C)C1C2 (stereo not drawn) ... inactive
CC1(C)CC[C@]2(C(=O)O[C@@H]3O[C@H](CO)[C@@H](O)[C@H](O)[C@H]3O)CC[C@]3(C)C(=CCC4[C@@]5(C)CC[C@H](O[C@@H]6O[C@H](C(=O)O)[C@@H](O)[C@H](O[C@@H]7O[C@H](CO)[C@H](O)[C@H](O)[C@H]7O)[C@H]6O)C(C)(C)C5CC[C@]43C)C2C1 (stereo partly drawn) ... inactive

###

measured.target: Cellular tumor antigen p53 (Homo sapiens)
measurement.description: Primary qHTS for small molecule compounds that upregulate eGFP-tagged delta133p53alpha (in C-terminal) cells. (AID 2060324); note: potency is the fitted concentration of half-maximal effect
measurement.parameters: NCI-H358 delta133p53alpha-eGFP (C-terminal tag), GFP fluorescence imaging, 24 h; series mostly up to 57.5 µM
Results filed as inconclusive are left out. Activity calls are given as the source filed them. Calls come from the whole dose curve; as a rule, active = well fitted activation curve with a large enough effect; inconclusive = small, poorly fitted or top-dose-only effect; inactive = flat fitted curve, though single readings scatter.
measured.metric: Potency

Check out these entries, answers already filled in.
CN(C)CCCN1c2ccccc2CCc2ccccc21 ... inactive
NC1(C(=O)O)CC1 ... inactive
CC(C)(C)c1ccc(/C=C/C(=O)Nc2ccc3c(c2)OCCO3)cc1 ... inactive
CC#C[C@]1(O)CC[C@H]2[C@@H]3CCC4=CC(=O)CCC4=C3[C@@H](c3ccc(N(C)C)cc3)C[C@@]21C ... inactive
CN(CC[C@@H](Oc1ccc(C(F)(F)F)cc1)c1ccccc1)CC(=O)O ... inactive
OCc1ccc(-c2nn(Cc3ccccc3)c3ccccc23)o1 ... inactive
Nc1nc2c(nc(Br)n2C2OC3COP(=O)(O)O[C@@H]3C2O)c(=O)[nH]1 (stereo partly drawn) ... inactive
CCc1cccc(N(C)C(N)=Nc2cccc3ccccc23)c1 ... inactive

Your task in this section: give Potency for each listed record.
1. Cc1cc2c(cc1Cl)N(C(=O)Nc1ccnc3ccccc13)CC2
2. COc1ccc(NC(=O)/C=C/c2ccc(Cl)cc2)cc1
3. CC(=O)c1ccc(S(=O)(=O)NC(=O)NC2CCCCC2)cc1
4. C=CCc1cccc(C=NNC(=O)CN2CCN(Cc3ccccc3)CC2)c1O
5. COc1ccc(CCN(C)CCc2ccc(OC)c(OC)c2)cc1OC
6. O=[N+]([O-])c1ccc2c(c1)S(=O)(=O)C=C2
7. O=c1cc(O)cc(/C=C/c2ccc(O)c(O)c2)o1

Key:
["inactive", "inactive", "inactive", "inactive", "inactive", "30.1 µM (active)", "inactive"]

Your task in this section: give Potency for each listed record.
1. CC(=O)O[C@H]1C[C@@H]2CC[C@@H]3[C@H](CC[C@@]4(C)[C@H]3C[C@H]([N+]3(C)CCCCC3)[C@@H]4OC(C)=O)[C@@]2(C)C[C@@H]1[N+]1(C)CCCCC1
2. Cc1cc(Cl)ccc1OCCCC(=O)NO
3. CS(=O)(=O)Nc1ccc([N+](=O)[O-])cc1Oc1ccccc1
4. O=C1NC(=O)/C(=C/c2ccc3c(c2)OC(F)(F)O3)S1
5. CCCNCC(O)COc1ccccc1C(=O)CCc1ccccc1 (stereo not drawn)
6. CC(C)COC(=O)OCN1C(=O)CN(CCN2CC(=O)N(COC(=O)OCC(C)C)C(=O)C2)CC1=O
7. N[C@@H](Cn1ccc(=O)c(O)c1)C(=O)O
8. NCC(O)C1CCCCCCC1 (stereo not drawn)

Key:
inactive
inactive
inactive
inactive
inactive
inactive
inactive
inactive
